The entries below come with measured GI50 values attached.
test system: HT29 colon; test: NCI tumour cell line growth inhibition, 48 h

Answered cases to consult:
| smiles.notation | GI50 |
| --- | --- |
| CN(C)C1CCN(C(=O)c2ccc(NC(=O)Nc3ccc(-c4nc(N5CCOCC5)c5cccn5n4)cc3)cc2)CC1 | 0.0558 µM |
| COc1cc(N=Nc2ccc(O)c3ncccc23)c2ncccc2c1 | 6.65 µM |
| O=C(Cc1ccc(F)c(Cl)c1)Nc1cc(C2(C(F)(F)F)CC2)nn1CC1CCCCC1 | 3.96 µM |

Lookup: // returns reported GI50 for input `CN(C)CC[C@H](CSc1ccccc1)Nc1ccc(S(=O)(=O)NC(=O)c2ccc(N3CCN(Cc4ccccc4-c4ccc(Cl)cc4)CC3)cc2)cc1[N+](=O)[O-]`
Found: 2.17 µM

====

test system: LOX IMVI melanoma; assay: NCI tumour cell line growth inhibition, 48 h
recorded.metric: TGI

Answered cases to consult:
| molecule | target.entity | TGI |
| --- | --- | --- |
| Cc1ccc(S(=O)(=O)n2c3c(c4ccccc42)CCN2C[C@H]([C@H](C)Br)CC[C@@H]32)cc1 | LOX IMVI melanoma | > 100 µM |
| COC(=O)/C(C#N)=C1\N=NNN1c1ccc(OC)cc1 | LOX IMVI melanoma | > 100 µM |

Lookup: Entry COC(=O)C1CCCC2(C1)OCCO2 (stereo not drawn) , system LOX IMVI melanoma: what TGI was measured?
Found: > 100 µM

Lookup: Entry `COC(=O)c1c2c(c(C)[n+]([O-])c1C)C(=O)C=C(NCc1ccc(F)cc1)C2=O` , system LOX IMVI melanoma: what TGI was measured?
Found: 2.09 µM

====

tested on: K-562 leukemia; experiment: NCI tumour cell line growth inhibition, 48 h
recorded.metric: GI50

Answered cases to consult:
| smiles.notation | target.entity | observed.result |
| --- | --- | --- |
| CN1CCN(c2ccc(Nc3cc(-c4cccc(-n5ccc6cc(C7CC7)cc(F)c6c5=O)c4CO)cn(C)c3=O)nc2)CC1 | K-562 leukemia | 3.17 µM |
| COc1cc(N=Nc2ccc(O)c3ncccc23)c2ncccc2c1 | K-562 leukemia | 3.44 µM |

Lookup: // returns reported GI50 for input `Cc1nnc(Nc2ccc(NC(=O)Nc3ccc(Cl)cc3)cc2)c2ccccc12`
Found: 2.2 µM

Lookup: // returns reported GI50 for input `CNCCOC(=O)/C=C1\CC[C@H]2[C@@H]([C@@H](O)C(=O)[C@@H]3[C@]2(C)CC[C@H](O)[C@]3(C)C(=O)OC)[C@H]1C`
Found: 0.412 µM

Lookup: // returns reported GI50 for input `Nc1ncn([C@@H]2O[C@H](CO)[C@@H](O)[C@H]2O)c(=O)n1`
Found: 0.572 µM

Lookup: // returns reported GI50 for input `CCCC(=O)Nc1cn(COC)c(C(=O)N2C[C@@H]3C[C@]34C2=CC(=O)c2[nH]cc(C)c24)n1`
Found: 3.02 µM

====

system: UACC-257 melanoma; experiment: NCI tumour cell line growth inhibition, 48 h
The entries below come with measured TGI values attached.

| molecule | target.entity | TGI |
| --- | --- | --- |
| O=C1NC2c3c(I)sc(I)c3C(O)C2O1 (stereo unspecified) | UACC-257 melanoma | > 100 µM |
| CCOc1ccc(/C=C2\N=C(c3ccc([N+](=O)[O-])cc3)OC2=O)cc1 | UACC-257 melanoma | > 100 µM |
| CN1CCOC1c1ccccc1O (stereo unspecified) | UACC-257 melanoma | > 100 µM |

Lookup: // returns reported TGI for input O=C1OC(C2Cc3ccc4ccccc4c3C2=O)c2ccccc21 (stereo unspecified)
Found: > 100 µM

Lookup: // returns reported TGI for input `O=C(CCn1ccnc1[N+](=O)[O-])NCCCn1ccnc1[N+](=O)[O-]`
Found: > 100 µM

====

The entries below come with measured TGI values attached.
test system: HCT-15 colon; experiment: NCI tumour cell line growth inhibition, 48 h
Express it in µM; write the number only.

Lookup: // returns reported TGI for input `O=c1oc2ccc(-c3ccc(F)cc3F)cc2c(=O)n1-c1cccc(C(F)(F)F)c1`
Found: 23.4

Lookup: // returns reported TGI for input Cc1nn(-c2ccccc2)c2c1C(c1cc3ccccc3nc1Cl)NC(=O)N2 (stereo not given)
Found: 48.1

====

test system: MDA-N; assay: NCI tumour cell line growth inhibition, 48 h
recorded.metric: TGI

Answered cases to consult:
| compound | target.entity | recorded.metric | observed.result |
| --- | --- | --- | --- |
| COc1cc(N(CCC#N)CCC#N)ccc1/C(N=Nc1ccc(Cl)cc1)=N/NC(=O)c1cc(Br)ccc1O | MDA-N | TGI | > 150 µg/mL |
| CCOC(=O)N[C@H]1CCc2cc(OC)c(OC)c(OC)c2-c2ccc(SC)c(=O)cc21 | MDA-N | TGI | > 100 µM |
| O=S(=O)(O)C(CO)c1ccccc1 (stereo not drawn) (tested in a mixture with another compound) | MDA-N | TGI | > 100 µM |
| O=C1OC(C2Cc3ccc4ccccc4c3C2=O)c2ccccc21 (stereo not drawn) | MDA-N | TGI | > 100 µM |
| Cn1c(SCc2ccc(F)cc2)nnc1C12CC3CC(CC(C3)C1)C2 | MDA-N | TGI | > 100 µM |

Turning to the following compound.
Lookup: // returns reported TGI for input `CC(C)c1cc2c(c(O)c1O)[C@@]1(C(=O)O)CCCC(C)(C)[C@@H]1CC2`
Found: > 100 µM

====

tested on: DMS 273 small cell lung; assay: NCI tumour cell line growth inhibition, 48 h
recorded.metric: TGI

Answered cases to consult:
| compound | TGI |
| --- | --- |
| CC(O)CNC(=O)C(C)Oc1ccc(OCC2CCCCC2)cc1 (stereo not given) | > 100 µM |
| COc1ccc2c(c1OCC(=O)O)C(=O)C(CCC(=O)O)CC2 (stereo not given) | > 100 µM |
| COC(=O)C1CCCC2(C1)OCCO2 (stereo not given) | > 100 µM |

Lookup: // returns reported TGI for input `On1c(-c2ccccc2)c(-c2ccccc2N2CCCC2)c2ccccc21`
Found: > 100 µM

Lookup: // returns reported TGI for input `CCC[CH2][Sn]([CH2]CCC)([O]C(=O)c1ccc(OC)c(OC)c1OC)[O][Sn]([CH2]CCC)([CH2]CCC)[O]C(=O)c1ccc(OC)c(OC)c1OC`
Found: 1.54 µM

====

tested on: TK-10 renal; experiment: NCI tumour cell line growth inhibition, 48 h; in the data active = GI50 below about 0.43 µM; inactive = the rest
Outcomes you can answer with include only these: 1.0 (active), 0.0 (inactive)

// below: answered compounds
| smiles.notation | assigned.label |
| --- | --- |
| CCN1CCN(c2cc(C)c3cc(NC(=O)c4ccc(OC)c(OC)c4)ccc3n2)CC1 | 0.0 |
| CNCCOC(=O)/C=C1\CC[C@H]2[C@@H]([C@@H](O)C(=O)[C@@H]3[C@]2(C)CC[C@H](O)[C@]3(C)C(=O)OC)[C@H]1C | 1.0 |

Lookup: Per the records of this test, what outcome belongs to `Nc1ncc(-c2ccc3ncnc(Nc4ccc(F)c(Cl)c4)c3c2)cn1` ?
Found: 1.0

====

The entries below come with measured TGI values attached.
system: NCI/ADR-RES ovarian; assay: NCI tumour cell line growth inhibition, 48 h

Answered cases to consult:
| compound | observed.result |
| --- | --- |
| CCN(CC)CCNc1nc(N)c(C#N)c(C#N)c1C#N | > 10 µM |
| O=c1[nH][nH]c(=O)n1CCCCCCn1c(=O)[nH][nH]c1=O | > 100 µM |
| Cc1nn(-c2ccccc2)c2c1C(c1cc3ccccc3nc1Cl)NC(=O)N2 (configuration not stated) | > 100 µM |
| O=C(NCP(=O)(Oc1ccccc1)Oc1ccccc1)OCc1ccccc1 | > 100 µM |
| CN(C)CC[C@H](CSc1ccccc1)Nc1ccc(S(=O)(=O)NC(=O)c2ccc(N3CCN(Cc4ccccc4-c4ccc(Cl)cc4)CC3)cc2)cc1[N+](=O)[O-] | > 100 µM |
| N[C@@H](Cc1ccccc1)C(=O)N1CCC[C@@H]1P(=O)(Oc1ccccc1)Oc1ccccc1 | > 100 µM |

Lookup: // returns reported TGI for input `O=C(Cc1ccc(F)c(Cl)c1)Nc1cc(C2(C(F)(F)F)CC2)nn1CC1CCCCC1`
Found: > 15 µM

Lookup: // returns reported TGI for input `NS(=O)(=O)c1ccc(N=Nc2c(O)c(C(=O)O)cc3ccccc23)cc1`
Found: > 100 µM

Lookup: // returns reported TGI for input `COc1ccc(-c2ccc(=O)oc2C#Cc2cc(OC)c(OC)c(OC)c2)cc1O`
Found: > 43.8 µM

Lookup: // returns reported TGI for input `S=c1[nH]c(=S)c2cc3ccccc3nc2[nH]1`
Found: > 100 µM

Lookup: // returns reported TGI for input O=C1OC(C2Cc3ccc4ccccc4c3C2=O)c2ccccc21 (configuration not stated)
Found: > 100 µM

Lookup: // returns reported TGI for input CCN1CN(c2ccccc2)C2(CCN(CC3COc4ccccc4O3)CC2)C1=O (configuration not stated)
Found: > 100 µM

Source listed as PubChem BioAssay (NCI).
